Test Protocol: Cytotoxicity against human HeLa cells after 24 hrs by CellTiter-Glo luminescent cell viability assay
Format: toxicity, cell-based
Overview of reported GI50 at 24 h across a group of compounds:
Your answer should be a plain number; it is taken to be in µg/mL.

Worked examples, 5 compounds total:
Query: // query GI50 at 24 h value for entry "C=C1CCCC[C@@]23N(C)CC[C@@]12c1c(C)cc(C)cc1N3C"
Reply: 20

Query: // query GI50 at 24 h value for entry "C=C1CCC[C@@]23N(C(=O)OCC)CC[C@@]12c1cc(C)ccc1N3C"
Reply: 43

Query: // query GI50 at 24 h value for entry "C=C1CCCC[C@@]23NCC[C@@]12c1c(C)cc(C)cc1N3C"
Reply: 26

Query: // query GI50 at 24 h value for entry "C=C1CCCC[C@]23Nc4cc(C)cc(C)c4[C@]12CCN3C(=O)OC"
Reply: 28

Query: // query GI50 at 24 h value for entry "C=C1CCC[C@@]23N(C(=O)OC)CC[C@@]12c1c(C)cc(C)cc1N3C"
Reply: 40

Further cases:
Query: // query GI50 at 24 h value for entry "C=C1CCCC[C@@]23N(C(=O)OCC)CC[C@@]12c1c(C)cc(C)cc1N3C"
Reply: 61

Query: // query GI50 at 24 h value for entry "C=C1CCCC[C@@]23N(C(=O)NCC)CC[C@@]12c1c(C)cc(C)cc1N3C"
Reply: 51

====

Overview of reported GI50 at 24 h across a group of molecules:
Test Protocol: Cytotoxicity against human HeLa cells after 24 hrs by CellTiter-Glo luminescent cell viability assay
Type: toxicity, cell-based

Worked examples, 3 molecules total:
Query: // query GI50 at 24 h value for entry "C=C1CCCC[C@@]23N(C(=O)OCC)CC[C@@]12c1cc(F)ccc1N3C"
Reply: > 64 µg/mL

Query: // query GI50 at 24 h value for entry "C=C1CCCC[C@@]23N(C(=O)NCc4ccccc4)CC[C@@]12c1c(C)cc(C)cc1N3C"
Reply: > 64 µg/mL

Query: // query GI50 at 24 h value for entry "C=C1CCCC[C@@]23N(C(=O)OCC)CC[C@@]12c1cc(F)c(OC)cc1N3C"
Reply: > 64 µg/mL

Further cases:
Query: // query GI50 at 24 h value for entry "C=C1CCCC[C@@]23N(C(=O)C(F)(F)F)CC[C@@]12c1c(C)cc(C)cc1N3C"
Reply: > 64 µg/mL

Query: // query GI50 at 24 h value for entry "C=C1CCCC[C@]23N(C)c4cc(C)cc(C)c4[C@]12CCN3S(=O)(=O)c1ccc(Cl)cc1"
Reply: > 64 µg/mL
